Documented Emax across a set of molecules
Molecular target: M4 muscarinic receptor (Homo sapiens, UniProt P08173)
Construct: expressed in transfected cells; host or cells: CHO
Sequence (P08173 1-479): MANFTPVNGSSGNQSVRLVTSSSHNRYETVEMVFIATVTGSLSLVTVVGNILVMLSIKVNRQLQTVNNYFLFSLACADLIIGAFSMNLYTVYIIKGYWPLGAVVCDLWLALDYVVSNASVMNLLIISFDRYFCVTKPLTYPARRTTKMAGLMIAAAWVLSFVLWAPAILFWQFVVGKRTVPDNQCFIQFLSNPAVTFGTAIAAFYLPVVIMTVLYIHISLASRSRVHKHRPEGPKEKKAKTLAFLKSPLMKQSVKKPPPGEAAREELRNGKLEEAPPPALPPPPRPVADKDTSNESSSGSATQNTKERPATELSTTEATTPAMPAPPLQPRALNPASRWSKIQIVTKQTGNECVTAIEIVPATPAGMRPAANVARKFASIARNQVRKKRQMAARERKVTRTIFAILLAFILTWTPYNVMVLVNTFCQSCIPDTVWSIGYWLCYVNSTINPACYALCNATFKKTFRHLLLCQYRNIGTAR
Assay: Functional mobilization of intracellular calcium (FLIPR) in CHO cells expressing M4
Assay type: cell-based
Conditions: CHO; 100% efficacy is the maximum response obtained with the Carbachol control
Protocol: Functional Mobilization of Intracellular Calcium to Determine Muscarinic Receptor Activity: […] Compounds are prepared at a 2× fold concentration in a 96-well plate (round bottom, Costar Corning cat#3656), by reconstituting the pre-spotted compounds in bath 1 containing 1 mM probenecid. […] In both assay modes, the fluorescence is recorded for 60 sec (excitation wavelength is […] and emission wavelength 540 nm) using the FLIPR 3 instrument. […]

State the recorded Emax for this entry: O=C1CCC2(CCN(CC3CC4C=CC3C4)CC2)c2ccccc2N1 (stereo not drawn)
25 to 100%

Which Emax reading was recorded for the molecule CC(C)(C)CCN1CCC2(CCC(=O)Nc3ccccc32)CC1 ?
25 to 100%

For CN1C(=O)CCC2(CCN(C3CCCCCC3)CC2)c2ccccc21 , what is its reported Emax?
25 to 100%

Which Emax value belongs to NC(=O)N1CCCC2(CCN(CC3CCCCC3)CC2)c2ccccc21 ?
< 25%
